tested on: A549/ATCC NSCLC; assay: NCI-60 one-dose screen, 48 h; conditions: 10 µM unless noted
This is part of a sample that, as a whole, favours compounds with a hit. Of some 83,000 tested, about 20% had one in any assay. Activity calls are given as the source filed them. How the source made its calls: active means growth percent below 10; inactive means the rest.
Respond with a class label; see active, inactive

INSERT INTO measurements (compound, cat) VALUES
  ('C#CCOc1ccc2ncnc(Nc3cccc(CNC(=O)CCl)c3)c2c1', 'inactive');

Incoming: Per the records of this test, what outcome belongs to "N#CCCN=Nc1c(O)[nH]c2ccc([N+](=O)[O-])cc12" ?
Outgoing: inactive

Incoming: For CCC([N+](=O)[O-])S(=O)(=O)c1ccc(C)cc1 (stereo not given) , which call appears in the assay record?
Outgoing: inactive

Incoming: Tell me the assay call for "c1ccc2[nH]c(-c3ccc(Nc4nc(N5CCCC5)nc5[nH]ncc45)cc3)nc2c1" please.
Outgoing: active

Incoming: Fill in: this test's call for "CC(=O)c1cc(C(=O)c2ccc3c(c2)Sc2ccccc2N3)n2ccccc12" is ___
Outgoing: inactive

Incoming: Please share the test call associated with "O=C(Cc1ccc(/C=C/C(=O)c2ncc[nH]2)cc1)Nc1ccc(F)cc1" .
Outgoing: inactive

Incoming: Dear all, I need the recorded test outcome for "CC(C)(C)c1cc(/C=N\NC(=O)/C=C/C=C/c2ccc3c(c2)OCO3)c(O)c(C(C)(C)C)c1" , thank you.
Outgoing: inactive

Incoming: For "COc1cc(C=Nc2oc(-c3ccccc3)c(-c3ccccc3)c2C#N)cc(CN2CCCCC2)c1O" , what call appears in the results of this test?
Outgoing: inactive

Incoming: Could you kindly confirm the outcome this assay logged for "COc1cc2c(cc1-c1c(C)noc1C)ncc1nc(C3CCOCC3)n([C@H](C)COC(F)F)c12" ?
Outgoing: inactive

Incoming: Status in this test for "CCN(CC)S(=O)(=O)c1ccc(OC)c(NC(=O)c2[nH]c(C)c3c2CCCCC3=O)c1" ?
Outgoing: inactive

----------
test system: IGROV1 ovarian; assay: NCI-60 one-dose screen, 48 h; conditions: 10 µM unless noted
About 83,000 compounds went through this panel and 20% of them were active in at least one assay; those are over-represented in the sample as a whole. Active and inactive are the calls of the source. The calls were made as follows: active = growth percent below 10; inactive = the rest.
Return exactly one item of active, inactive

As a guide, the following entries are already answered.
INSERT INTO assay_data (molecule, cat) VALUES
  ('O=C(/C=C/c1cccc(Cl)c1)c1ccc(O)c(CN2CCN(c3cc4c(cc3F)c(=O)c(C(=O)O)cn4C3CC3)CC2)c1', 'inactive'),
  ('COc1ccc(SC2c3ccc(C)cc3Oc3nc(N)c(C#N)c(N)c32)cc1 (centres undefined)', 'active'),
  ('CC(=O)OC[C@H]1O[C@H](OC(C)=O)[C@H](NC(=O)/C=C/CCl)[C@@H](OC(C)=O)[C@@H]1OC(C)=O', 'inactive');

Incoming: What did the test return for "COc1ccc(-c2nc3cc(C(=O)Nc4cc(OC)c(OC)c(OC)c4)ccc3n2C2CCCCC2)cc1" ?
Outgoing: inactive

Incoming: Would you mind telling me which call this test gave "COc1cc(/C=C/c2cc(/C=C/c3ccc(O)c(OC)c3)n(-c3c(Cl)cccc3Cl)c(=O)n2)ccc1O" ?
Outgoing: inactive

----------
tested on: TK-10 renal; test: NCI-60 one-dose screen, 48 h; details: 10 µM unless noted
This is part of a sample that, as a whole, favours compounds with a hit. Of some 83,000 tested, about 20% had one in any assay. Active and inactive are the calls of the source. How the source made its calls: active means growth percent below 10; inactive means the rest.
Log the outcome using a class from active, inactive

Incoming: Tell me the recorded outcome of this test for COc1ccc(SC2c3cc(OC)c(OC)cc3Oc3nc(N)c(C#N)c(N)c32)cc1 (centres undefined) .
Outgoing: active

Incoming: What call does the record list for "CN1CCN(CCCOc2cccc3nc(Nc4ccc(Cl)c(F)c4)ccc23)CC1" ?
Outgoing: inactive

Incoming: Would you mind telling me which call this test gave "COc1ccc(/C=C/c2nc(-c3n[nH]c(=O)n3-c3ccccc3)c3ccccc3n2)cc1" ?
Outgoing: inactive

Incoming: Record lookup: outcome of this test for "CCOc1ccc(C(C)=O)cc1NC(=O)c1cccc(-c2nnn(CC)n2)c1" ?
Outgoing: inactive

Incoming: // return assay outcome for Cc1cc(N2CCCC2)nc(NC2CCCC(Nc3ccnc4cc(Cl)ccc34)C2)n1 (centres undefined)
Outgoing: active

Incoming: Assay outcome for "O=C1/C(=C/C(Cl)=C/c2ccccc2)SC(=S)N1CCc1ccc(O)cc1" : what was it?
Outgoing: inactive

Incoming: Please share the test call associated with "CC(=O)Oc1ccc(Cl)cc1CN(C(C)=O)C1CCCCC1" .
Outgoing: inactive

Incoming: What is the recorded call for this compound in the test? CC(C)CC1C(=O)N2CCC[C@H]2C2(O)O[C@](NC(=O)C3C=C4c5cccc6[nH]c(Br)c(c56)C[C@H]4N(C)C3)(C(C)C)C(=O)N12 (some centres undefined)
Outgoing: inactive

Incoming: Write down the call the test reported for this compound. Item: "O=C(Nc1ccccc1Cl)c1ccc(NC2=C(Cl)C(=O)N(C3CCCCC3)C2=O)cc1"
Outgoing: inactive

----------
tested on: SK-OV-3 ovarian; assay: NCI-60 one-dose screen, 48 h; conditions: 10 µM unless noted
This is part of a sample that, as a whole, favours compounds with a hit. Of some 83,000 tested, about 20% had one in any assay. Calls of active or inactive are those of the source. How the source made its calls: active means growth percent below 10; inactive means the rest.
Response enum: true (1) = active, false (0) = inactive

Incoming: Please let me know the test result on file for "CCN(CC)CCCCNc1c2ccc(Cl)cc2nc2ccc(OC)cc12" .
Outgoing: true (1)

Incoming: In this assay, the call recorded for "Clc1ccc2c(NCCNc3nc(N4CCOCC4)nc4ccccc34)ccnc2c1" was what?
Outgoing: true (1)

Incoming: I would be grateful if you could indicate the recorded call for "CCOC(=O)c1sc2nc(-c3cccc(OC)c3)nc(N3CCOCC3)c2c1C" .
Outgoing: false (0)

Incoming: What outcome does the record of this test show for "Cc1cc(C)nc(SC2=C(Nc3cccc(Cl)c3C)C(=O)N(Cc3ccccc3)C2=O)n1" ?
Outgoing: false (0)

Incoming: For CC(C)CSc1nc(N)nc2c1ncn2C1OC(CO)C(O)C1O (stereo not given) , what call appears in the results of this test?
Outgoing: false (0)

Incoming: So what was the verdict on "CC(=O)Nc1ccc(-n2c(O)c(/C=N/NC(=O)Cc3ccccc3Nc3c(Cl)cccc3Cl)sc2=S)cc1" in this test?
Outgoing: false (0)

Incoming: For "COc1ccc(NC(=O)c2ccc(/C=C/C(=O)c3ncc[nH]3)cc2)cc1" , what call appears in the results of this test?
Outgoing: false (0)

Incoming: Kindly provide the recorded test outcome for the following compound: "CC(=O)OCCC/C(=C/c1cc2ccccc2c2ccccc12)[N+](=O)[O-]"
Outgoing: false (0)

Incoming: For "CCCSc1ccc2nc(NC(=O)OC)[nH]c2c1" , which call appears in the assay record?
Outgoing: true (1)

Incoming: Please state the recorded outcome for this compound: "COc1cccc(-c2nc3sccn3c2-c2ccnc(NCCNS(=O)(=O)c3ccc(F)cc3)c2)c1"
Outgoing: false (0)

Incoming: Status in this test for "COc1cc2c(cc1O)CC[C@@H]1[C@@H]2CC[C@]2(C)[C@@H](OCCN(C)C)CC[C@@H]12" ?
Outgoing: false (0)

Incoming: Just curious, what result did "Clc1ccc2nc3nc4ccc[nH]c4cc3c2c1" get here?
Outgoing: false (0)

Incoming: How did this test come out for "C#CCOc1ccc2ncnc(N3CCN(C(=O)CCl)CC3)c2c1" ?
Outgoing: false (0)

Incoming: I'd appreciate the recorded outcome for "Cc1ccccc1COc1ccc(-c2onc(C)c2-c2ccc(Cl)cc2)cc1" from this test.
Outgoing: false (0)

Incoming: Which outcome was assigned to "COc1cc2nc(N3CCCC3)nc(Nc3ccccc3)c2cc1OC" in this test?
Outgoing: false (0)

Incoming: What classification did "O=C1Nc2c(ccc(Cl)c2Cl)/C1=C\c1cc(C(F)(F)F)cc(C(F)(F)F)c1" end up with in this test?
Outgoing: false (0)

Incoming: Called result for CCCCC(=O)OCC1OC(n2cnc3c(=S)nc[nH]c32)C(OC(=O)CCCC)C1OC(=O)CCCC (stereo not given)
Outgoing: false (0)

Incoming: State the result this test recorded for "COc1ccc(-c2cc(-c3ccc(Nc4ccnc5cc(Cl)ccc45)cc3)nc(N3CCOCC3)n2)cc1" .
Outgoing: false (0)

Incoming: Lab log entry: "COc1ccc(C(=O)c2sc3nc4c(c(-c5cccnc5)c3c2N)CCCC4)cc1OC" — outcome as called in the assay?
Outgoing: false (0)

Incoming: Record request — test call for CC1=C(O)C(=O)C(C(C#N)(C#N)C(C#N)C#N)C1 (stereo not given)
Outgoing: false (0)

----------
system: SK-MEL-2 melanoma; experiment: NCI-60 one-dose screen, 48 h (100 = growth as untreated, 0 = no growth, -100 = all killed); settings: 10 µM unless noted
Compounds without any hit were thinned out: in the full panel of roughly 83,000, 20% have a hit.
Output schema: class label derived from growth. Mapping: bin 0 = under 40%, bin 1 = from 40% up to 90%, bin 2 = 90% and over

INSERT INTO results (molecule, cat) VALUES
  ('CCOc1cc2ncc(C#N)c(Nc3ccc(OCc4cccc(F)c4)c(Cl)c3)c2cc1NC(=O)CC1CCSS1 (configuration not stated)', 'bin 0');

Incoming: Input "CN1CCN=C1c1ccc(NC(=O)c2ccc(C(=O)Nc3ccc(C4=NCCN4C)cc3)cc2)cc1" ; output its category
Outgoing: bin 2

Incoming: Textbook exercise: identify the category of the molecule given here, "COc1cccc(-c2nc3sccn3c2-c2ccnc(NCCCNS(=O)(=O)c3c(Cl)cccc3Cl)c2)c1" , according to its measured value.
Outgoing: bin 1

Incoming: Hi there! Could you help me figure out the category for "Nc1ccc(S(=O)(=O)O)c2ccc(N=Nc3ccc(N=Nc4ccc(S(=O)(=O)O)cc4)c4ccccc34)c(O)c12" please?
Outgoing: bin 2

Incoming: GET /class?item= "c1ccc(-c2c(-c3ccccc3)[n+](Cc3ccc4ccccc4c3)c(-c3ccc(-c4nc5ccccc5s4)cc3)n2Cc2ccc3ccccc3c2)cc1"
Outgoing: bin 0

Incoming: Consider "CC(=O)OCCC/C(=C/c1cc2ccccc2c2ccccc12)[N+](=O)[O-]" . To which growth class does it belong?
Outgoing: bin 0

Incoming: Form field 'band' for "CCNC(=O)Oc1ccc(/C(=C(\C)c2ccc(Cl)cc2)c2ccc(OCCN3CCCCC3)cc2)cc1"
Outgoing: bin 1

Incoming: Hi, small favor: classify Cc1ccc(NC(=O)C2CCC(CN3CCN(C)CC3)CC2)cc1Nc1nccc(-c2cccnc2)n1 (configuration not stated) by its growth when you get a moment.
Outgoing: bin 2

Incoming: Class for "Cc1cc(Nc2ccc(C)c(Cl)c2)n2nc(C(F)(F)F)nc2n1" ?
Outgoing: bin 1

Incoming: Kindly identify the class of "CC[C@H]1OC(=O)[C@H](C)[C@@H](O[C@H]2C[C@@](C)(OC)[C@@H](O)[C@H](C)O2)[C@H](C)[C@@H](O[C@@H]2O[C@H](C)C[C@H](N(C)C)[C@H]2O)[C@](C)(O)C[C@H](C)CN(C)[C@H](C)[C@@H](O)[C@]1(C)O" .
Outgoing: bin 2

Incoming: # classify by growth band: "Cc1c(/C=C/[N+](=O)[O-])ccc2c1[nH]c1ccccc12"
Outgoing: bin 2

Incoming: Which of the defined bands does the recorded growth of "C(=C\c1nccc2c1[nH]c1ccccc12)/c1ccccc1" sit within?
Outgoing: bin 0
